Entry source: ChEMBL document CHEMBL2429773

Each entry below carries its recorded TD50 at 0.5 h.
# method_summary: Neurotoxicity in ip dosed albino mouse measured after 30 mins by rotarod method
# Format: toxicity, organism-based
# condition_notes: in vivo
reported_metric: TD50 at 0.5 h (mg/kg)

>>> endpoint_result("O=C1c2ccccc2C(=O)N1c1cccc(Cl)c1")
300
>>> endpoint_result("O=C1c2ccccc2C(=O)N1c1ccc(F)cc1")
182

----------
Each entry below carries its recorded ED50.
# Test system: Mus musculus
# method_summary: Anticonvulsant activity in ip dosed albino mouse assessed as protection against maximal electroshock-induced seizures after 0.5 hr
# Type: functional
reported_metric: ED50 (mg/kg)

>>> endpoint_result("O=C1c2ccccc2C(=O)N1c1cccc([N+](=O)[O-])c1")
174
>>> endpoint_result("COc1ccccc1N1C(=O)c2ccccc2C1=O")
195
>>> endpoint_result("O=C1c2ccccc2C(=O)N1c1ccccc1[N+](=O)[O-]")
53.5
>>> endpoint_result("O=C1c2ccccc2C(=O)N1c1ccccc1Cl")
168
>>> endpoint_result("O=C1c2ccccc2C(=O)N1c1cccc(F)c1")
39.7
>>> endpoint_result("O=C1c2ccccc2C(=O)N1c1cccc(Cl)c1")
190
>>> endpoint_result("COc1ccc(N2C(=O)c3ccccc3C2=O)cc1")
15.1
>>> endpoint_result("O=C1c2ccccc2C(=O)N1c1ccc(Cl)cc1")
55
>>> endpoint_result("CN1C(=O)CN=C(c2ccccc2)c2cc(Cl)ccc21")
1.8
>>> endpoint_result("O=C1c2ccccc2C(=O)N1c1ccccc1 [N-PHENYL-PHTHALIMIDE]")
66.2
>>> endpoint_result("O=C1c2ccccc2C(=O)N1c1ccc([N+](=O)[O-])cc1")
62.3
